Assay System: Guanine nucleotide-binding protein G(o) subunit alpha (Homo sapiens) (UniProt P09471)
Sequence (P09471 whole entry, looked up): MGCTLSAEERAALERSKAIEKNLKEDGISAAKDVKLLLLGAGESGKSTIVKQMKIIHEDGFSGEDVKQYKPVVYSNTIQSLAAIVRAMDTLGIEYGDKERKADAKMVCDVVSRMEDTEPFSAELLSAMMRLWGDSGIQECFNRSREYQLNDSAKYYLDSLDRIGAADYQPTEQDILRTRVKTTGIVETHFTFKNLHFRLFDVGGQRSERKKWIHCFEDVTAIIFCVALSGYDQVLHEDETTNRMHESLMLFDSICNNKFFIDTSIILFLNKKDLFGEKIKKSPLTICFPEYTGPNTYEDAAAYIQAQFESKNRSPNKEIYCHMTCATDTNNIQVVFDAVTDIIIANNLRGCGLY
Protocol Details: compounds changing RGS7 association with Galphao – biochemical, multiplexed bead flow cytometry, primary screen (AID 1439);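 also: fluorescent Galphao held in activated GDP-AlF4 state binding bead-coupled RGS7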
Measurement Conditions: at 10 µM, actives lie on both sides
Out of some 220,000 compounds screened, about 770 (0.35%) were called active. Not shown: some 15% with an inconclusive outcome. Rule as the data show it: active = binding response below about 49% or above about 150%; inconclusive = no clear call, values can overlap the other calls; inactive = in between. Many of the other results were omitted from the sample, so actives are more common in it than they were.
Assign a class; possible classes are active, inactive

Example cases with answers are listed next.
COc1ccc(CCC(=O)OCC(=O)Nc2ccc(C)c(S(=O)(=O)N(C)C)c2)cc1 : active
N#C/C(C(=S)Nc1ccccc1)=C1/NN=C(N2CCOCC2)N1c1ccccc1 : inactive
CN(C)CCn1c(=S)[nH]c2ccc(Cl)cc2c1=O : inactive
Cn1c(=NC(=O)C2CC2)sc2cc(F)cc(F)c21 : inactive

Hello, I am checking results. What call was entered for `CCOC(=O)c1[nH]cnc1C(=O)Nc1ccccc1C` ?
inactive
